Each recorded value in this set is attributed to paper PMC3174055.

# METHOD: Plasma pharmacokinetics in mice
# Type: in vivo, CD-1 mice
# TEST PARAMETERS: male, CD-1, mouse, ip, 10 mg/kg
OBSERVATION TYPE: Tmax (min)
Note: unit min is implicit; provide only the numeric part.

Fill blank: measured Tmax of the molecule `Cn1c(=O)n(-c2ccc(C(C)(C)C#N)cc2)c2c3cc(-c4cnc5ccccc5c4)ccc3ncc21` is ____.
15

---

# METHOD: Plasma pharmacokinetics in mice
# Format: in vivo, CD-1 mice
# TEST PARAMETERS: male, CD-1, mouse, ip, 10 mg/kg
OBSERVATION TYPE: Cmax (nM)
Note: unit nM is implicit; provide only the numeric part.

Fill blank: measured Cmax of the compound `Cn1c(=O)n(-c2ccc(C(C)(C)C#N)cc2)c2c3cc(-c4cnc5ccccc5c4)ccc3ncc21` is ____.
1860

---

# METHOD: Plasma pharmacokinetics in mice
# Type: in vivo, CD-1 mice
# TEST PARAMETERS: male, CD-1, mouse, ip, 10 mg/kg
OBSERVATION TYPE: AUC (µM·h)
Note: unit µM·h is implicit; provide only the numeric part.

Fill blank: measured AUC of the molecule Cn1c(=O)n(-c2ccc(C(C)(C)C#N)cc2)c2c3cc(-c4cnc5ccccc5c4)ccc3ncc21 [BEZ-235] is ____.
7.33

---

# MEASURED ON: p110δ (Homo sapiens, UniProt O00329)
# Sequence (O00329 whole entry): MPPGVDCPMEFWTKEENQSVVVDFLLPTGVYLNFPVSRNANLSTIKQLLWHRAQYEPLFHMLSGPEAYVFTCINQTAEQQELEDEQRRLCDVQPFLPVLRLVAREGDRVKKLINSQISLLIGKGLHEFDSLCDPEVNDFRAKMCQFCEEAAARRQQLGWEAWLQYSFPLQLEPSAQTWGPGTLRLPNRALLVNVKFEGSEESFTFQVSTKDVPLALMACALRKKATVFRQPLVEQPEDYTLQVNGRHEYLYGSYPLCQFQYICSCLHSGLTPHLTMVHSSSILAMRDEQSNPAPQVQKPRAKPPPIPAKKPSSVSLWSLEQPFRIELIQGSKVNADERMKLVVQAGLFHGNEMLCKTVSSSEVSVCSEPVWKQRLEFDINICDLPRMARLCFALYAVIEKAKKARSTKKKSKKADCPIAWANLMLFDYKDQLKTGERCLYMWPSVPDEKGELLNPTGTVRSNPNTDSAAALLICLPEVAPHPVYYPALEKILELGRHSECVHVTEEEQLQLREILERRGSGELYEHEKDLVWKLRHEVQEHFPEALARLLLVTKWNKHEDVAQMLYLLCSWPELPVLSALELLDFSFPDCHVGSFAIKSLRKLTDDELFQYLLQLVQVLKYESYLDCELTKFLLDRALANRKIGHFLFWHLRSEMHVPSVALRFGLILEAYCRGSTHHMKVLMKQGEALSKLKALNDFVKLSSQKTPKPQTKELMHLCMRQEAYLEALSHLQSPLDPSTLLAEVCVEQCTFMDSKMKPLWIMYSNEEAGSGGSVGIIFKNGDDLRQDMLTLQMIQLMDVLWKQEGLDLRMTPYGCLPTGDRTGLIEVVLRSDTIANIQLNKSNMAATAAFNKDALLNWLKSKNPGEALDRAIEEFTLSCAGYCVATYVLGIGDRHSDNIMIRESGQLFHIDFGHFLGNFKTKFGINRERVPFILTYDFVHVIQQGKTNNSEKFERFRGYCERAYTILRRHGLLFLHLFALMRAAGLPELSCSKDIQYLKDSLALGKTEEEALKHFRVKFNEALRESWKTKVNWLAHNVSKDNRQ
# Sequence (P27986 whole entry partner): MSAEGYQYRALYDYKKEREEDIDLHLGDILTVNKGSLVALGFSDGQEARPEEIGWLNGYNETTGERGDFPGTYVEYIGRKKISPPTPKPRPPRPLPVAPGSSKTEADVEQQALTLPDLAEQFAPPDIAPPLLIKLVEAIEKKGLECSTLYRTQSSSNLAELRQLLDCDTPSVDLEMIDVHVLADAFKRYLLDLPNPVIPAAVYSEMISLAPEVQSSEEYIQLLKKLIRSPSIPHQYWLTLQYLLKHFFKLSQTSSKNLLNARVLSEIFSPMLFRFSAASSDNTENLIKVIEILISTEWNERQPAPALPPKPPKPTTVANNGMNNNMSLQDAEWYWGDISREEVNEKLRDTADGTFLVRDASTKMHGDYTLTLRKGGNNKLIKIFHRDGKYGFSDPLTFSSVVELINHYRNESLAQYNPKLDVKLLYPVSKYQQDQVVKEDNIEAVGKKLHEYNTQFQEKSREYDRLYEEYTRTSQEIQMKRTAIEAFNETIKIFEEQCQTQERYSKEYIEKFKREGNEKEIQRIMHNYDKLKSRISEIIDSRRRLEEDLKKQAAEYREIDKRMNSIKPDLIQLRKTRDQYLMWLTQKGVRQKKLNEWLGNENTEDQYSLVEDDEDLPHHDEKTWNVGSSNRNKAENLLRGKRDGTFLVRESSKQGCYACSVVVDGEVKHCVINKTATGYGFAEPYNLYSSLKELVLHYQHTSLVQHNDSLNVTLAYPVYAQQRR
OBSERVATION TYPE: pIC50
Keep in mind that pIC50 stands for -log10 of concentration in molar terms.

API: value(readout= pIC50, system= p110δ (Homo sapiens, UniProt O00329), query= Cc1cc(C(C)Nc2ccccc2)c2nc(N3CCOCC3)cc(=O)n2c1 (stereo not shown) )
6.89

---

# MEASURED ON: p110α H1047R (Homo sapiens, UniProt P42336, H1047R)
# Sequence (P42336 whole entry H1047R): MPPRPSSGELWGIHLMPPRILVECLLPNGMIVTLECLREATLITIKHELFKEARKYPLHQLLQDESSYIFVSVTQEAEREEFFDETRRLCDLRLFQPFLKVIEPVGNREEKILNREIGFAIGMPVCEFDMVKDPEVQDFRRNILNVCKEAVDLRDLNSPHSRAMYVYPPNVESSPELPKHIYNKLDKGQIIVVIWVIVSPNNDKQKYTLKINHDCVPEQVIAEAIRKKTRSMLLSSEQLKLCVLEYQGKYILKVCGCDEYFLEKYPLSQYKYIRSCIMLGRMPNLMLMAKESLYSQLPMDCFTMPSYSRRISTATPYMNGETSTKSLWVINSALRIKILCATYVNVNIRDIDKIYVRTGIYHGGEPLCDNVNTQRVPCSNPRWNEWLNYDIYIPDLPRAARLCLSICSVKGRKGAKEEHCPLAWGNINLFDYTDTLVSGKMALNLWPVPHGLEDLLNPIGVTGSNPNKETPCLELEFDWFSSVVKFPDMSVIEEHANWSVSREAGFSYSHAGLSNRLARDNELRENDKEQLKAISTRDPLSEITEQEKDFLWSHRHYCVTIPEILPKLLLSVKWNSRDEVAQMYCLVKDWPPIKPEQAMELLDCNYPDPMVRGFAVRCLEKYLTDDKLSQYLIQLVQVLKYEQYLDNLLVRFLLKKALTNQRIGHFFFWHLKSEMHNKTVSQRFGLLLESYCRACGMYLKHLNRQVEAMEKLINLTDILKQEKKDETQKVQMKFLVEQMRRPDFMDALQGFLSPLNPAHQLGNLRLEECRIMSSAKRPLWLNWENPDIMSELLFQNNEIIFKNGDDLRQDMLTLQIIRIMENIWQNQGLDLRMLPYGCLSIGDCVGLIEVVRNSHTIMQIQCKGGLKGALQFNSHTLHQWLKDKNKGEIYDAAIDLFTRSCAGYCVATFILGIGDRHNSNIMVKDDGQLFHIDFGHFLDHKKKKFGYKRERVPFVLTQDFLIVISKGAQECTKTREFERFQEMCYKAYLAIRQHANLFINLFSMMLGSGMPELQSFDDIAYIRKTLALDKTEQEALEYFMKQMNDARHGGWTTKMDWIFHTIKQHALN
# Sequence (P27986 whole entry partner): as the sequence (P27986 whole entry partner) above
# METHOD: PI3K
# TEST PARAMETERS: read-out: IC50 against p110α H1047R; HTRF assay
pIC50: −log10 of the molar value.
OBSERVATION TYPE: pIC50

API: value(readout= pIC50, system= p110α H1047R (Homo sapiens, UniProt P42336, H1047R), query= Cc1cc(C(C)Nc2ccccc2)c2nc(N3CCOCC3)cc(=O)n2c1 (stereo not shown) [TGX-221] )
< 6.00

---

# MEASURED ON: p110α (Homo sapiens)
# Sequence (P42336 whole entry, one chain of several): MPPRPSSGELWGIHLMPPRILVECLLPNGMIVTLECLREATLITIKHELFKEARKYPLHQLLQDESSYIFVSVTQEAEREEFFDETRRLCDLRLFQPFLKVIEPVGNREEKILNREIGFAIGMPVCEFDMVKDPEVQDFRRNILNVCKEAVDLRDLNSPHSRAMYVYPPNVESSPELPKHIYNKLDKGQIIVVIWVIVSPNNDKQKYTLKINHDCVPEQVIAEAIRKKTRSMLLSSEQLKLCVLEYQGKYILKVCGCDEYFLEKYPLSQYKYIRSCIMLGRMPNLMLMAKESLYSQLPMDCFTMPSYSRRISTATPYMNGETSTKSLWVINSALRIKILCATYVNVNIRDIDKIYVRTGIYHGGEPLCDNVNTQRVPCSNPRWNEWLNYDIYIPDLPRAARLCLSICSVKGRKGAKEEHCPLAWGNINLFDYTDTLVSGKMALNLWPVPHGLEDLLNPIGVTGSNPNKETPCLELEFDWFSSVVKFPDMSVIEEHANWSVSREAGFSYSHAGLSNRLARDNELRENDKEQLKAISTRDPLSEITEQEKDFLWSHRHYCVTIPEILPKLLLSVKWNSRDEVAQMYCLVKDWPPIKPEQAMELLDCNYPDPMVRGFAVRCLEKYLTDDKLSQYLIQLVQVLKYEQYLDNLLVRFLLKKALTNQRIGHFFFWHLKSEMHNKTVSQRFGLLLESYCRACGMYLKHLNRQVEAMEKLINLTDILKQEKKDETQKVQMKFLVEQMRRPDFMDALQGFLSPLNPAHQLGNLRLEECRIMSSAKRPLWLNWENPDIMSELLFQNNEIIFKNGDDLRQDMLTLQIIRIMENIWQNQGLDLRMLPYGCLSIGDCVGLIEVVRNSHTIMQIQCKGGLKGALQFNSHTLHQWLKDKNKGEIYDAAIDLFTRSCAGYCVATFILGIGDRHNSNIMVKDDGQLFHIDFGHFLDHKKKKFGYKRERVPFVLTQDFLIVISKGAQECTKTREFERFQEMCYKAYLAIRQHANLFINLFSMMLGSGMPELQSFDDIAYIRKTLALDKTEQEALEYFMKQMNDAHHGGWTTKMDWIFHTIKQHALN
OBSERVATION TYPE: IC50

API: value(readout= IC50, system= p110α (Homo sapiens), query= Cc1cc(C(C)Nc2ccccc2)c2nc(N3CCOCC3)cc(=O)n2c1 (stereo not shown) )
> 1000 nM
